Cited source: patent US4638005A

Molecular target: nitrogenase (Azotobacter vinelandii, UniProt P00459)
Construct: the nitrogenase sample was prepared from a culture of Azotobacter vinelandii; endogenous in cells; host or cells: Azotobacter vinelandii culture; French press lysate, 10,000 x g supernatant (crude)
Sequence (P00459 2-290 limits assumed): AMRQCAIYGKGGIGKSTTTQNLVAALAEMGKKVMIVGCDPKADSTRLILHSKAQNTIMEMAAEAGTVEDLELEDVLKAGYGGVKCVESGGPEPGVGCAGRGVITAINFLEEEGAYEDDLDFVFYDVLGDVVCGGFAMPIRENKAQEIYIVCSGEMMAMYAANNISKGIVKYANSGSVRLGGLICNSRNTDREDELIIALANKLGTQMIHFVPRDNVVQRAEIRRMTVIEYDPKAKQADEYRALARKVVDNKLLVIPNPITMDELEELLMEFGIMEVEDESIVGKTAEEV
Test: Chloroplast-coupled evolution of hydrogen by nitrogenase in the absence of substrate
Format: biochemical
Settings: Table II; hydrogen evolution
Please note: satisfied applies when ACTIVITY RELATIVE TO FERREDOXIN (%) is 30% or greater, and not satisfied applies otherwise.

Quick check, ACTIVITY RELATIVE TO FERREDOXIN (%) >= 30%? C[n+]1ccnc(CCCCS(=O)(=O)[O-])c1 satisfied

Quick check, ACTIVITY RELATIVE TO FERREDOXIN (%) >= 30%? CCC(O)Cc1c[n+](C)ccn1.[I-] (centres unmarked) satisfied

Quick check, ACTIVITY RELATIVE TO FERREDOXIN (%) >= 30%? COC(=O)CCc1c[n+](C)ccn1.[I-] not satisfied

---

Here, each record is paired with measured ACTIVITY (nmoles C2 H4 /mg protein/min) data.
Target: nitrogenase (Azotobacter vinelandii, UniProt P00459)
Construct: the nitrogenase sample was prepared from a culture of Azotobacter vinelandii; endogenous in cells; host or cells: Azotobacter vinelandii culture; French press lysate, 10,000 x g supernatant (crude)
Assay: Chloroplast-coupled reduction of acetylene to ethylene by nitrogenase (electron carrier bioassay of Benemann)
Type: biochemical
Settings: Table I; illuminated spinach chloroplasts; synthetic carriers 2 mM, clostridial ferredoxin 0.2 mM

Solved entries (count: 10):
[
  {
    "compound": "COC(=O)c1c[n+](C)ccn1",
    "ACTIVITY (nmoles C2 H4 /mg protein/min)": "0.0 nmoles C2 H4 /mg protein/min"
  },
  {
    "compound": "C[n+]1ccnc(CCS(=O)(=O)[O-])c1",
    "ACTIVITY (nmoles C2 H4 /mg protein/min)": "13.2 nmoles C2 H4 /mg protein/min"
  },
  {
    "compound": "C[n+]1ccnc(CCCCS(=O)(=O)[O-])c1",
    "ACTIVITY (nmoles C2 H4 /mg protein/min)": "10.7 nmoles C2 H4 /mg protein/min"
  },
  {
    "compound": "CC(O)c1c[n+](C)ccn1 (centres unmarked)",
    "ACTIVITY (nmoles C2 H4 /mg protein/min)": "2.3 nmoles C2 H4 /mg protein/min"
  },
  {
    "compound": "Cc1c[n+](CCCS(=O)(=O)[O-])c(C)cn1",
    "ACTIVITY (nmoles C2 H4 /mg protein/min)": "14.0 nmoles C2 H4 /mg protein/min"
  },
  {
    "compound": "C[n+]1ccnc(C(O)CO)c1.[I-] (centres unmarked)",
    "ACTIVITY (nmoles C2 H4 /mg protein/min)": "7.5 nmoles C2 H4 /mg protein/min"
  },
  {
    "compound": "COC(=O)CCc1c[n+](C)ccn1.[I-]",
    "ACTIVITY (nmoles C2 H4 /mg protein/min)": "3.0 nmoles C2 H4 /mg protein/min"
  },
  {
    "compound": "C=Cc1c[n+](C)ccn1",
    "ACTIVITY (nmoles C2 H4 /mg protein/min)": "1.8 nmoles C2 H4 /mg protein/min"
  },
  {
    "compound": "C[n+]1ccnc(CC(C(O)CO)S(=O)(=O)[O-])c1 (centres unmarked)",
    "ACTIVITY (nmoles C2 H4 /mg protein/min)": "14.8 nmoles C2 H4 /mg protein/min"
  },
  {
    "compound": "C[n+]1ccnc(CCC(=O)O)c1.[I-]",
    "ACTIVITY (nmoles C2 H4 /mg protein/min)": "3.7 nmoles C2 H4 /mg protein/min"
  }
]

Now consider a different compound.
Report ACTIVITY (nmoles C2 H4 /mg protein/min) for C[n+]1ccnc(CS(C)(=O)=O)c1 please. 0.7 nmoles C2 H4 /mg protein/min
